Values from ChEMBL document CHEMBL4130549

MIC overview
- Test system: Enterobacteriaceae
- experimentNotes: Antibacterial activity against NDM-1-producing Enterobacteriaceae isolate N3 after 16 to 20 hrs by broth microdilution method
- Type: functional
Field format: number, assumed µg/mL, no unit text.

- CCCCCCCCCCCN(CCCCCCCCCCC)C(=O)[C@@H](N)CCCCN.Cl.Cl: 32
- CCCCCCCCCN(CCCCCCCCC)C(=O)[C@@H](N)CCCCN.Cl.Cl: 2
- CCCCCCCCN(CCCCCCCC)C(=O)[C@@H](N)CCCN=C(N)N.Cl.Cl.Cl: 8
- CCCCCCCCN(CCCCCCCC)C(=O)[C@H](C)N.Cl: 64
- CCCCCCCN(CCCCCCC)C(=O)[C@@H](N)CCCCN.Cl.Cl: 32
- CCCCCCCCCCN(CCCCCCCCCC)C(=O)[C@@H](N)CCCN=C(N)N.Cl.Cl.Cl: 4

**Q:** Look up MIC: `CCCCCCCCN(CCCCCCCC)C(=O)[C@@H](N)CO.Cl`
**A:** 16

**Q:** What measured MIC goes with `CCCCCCCCCCN(CCCCCCCCCC)C(=O)[C@@H](N)CCCCN.Cl.Cl` ?
**A:** 4

**Q:** Fill in: MIC of CCCCCCCCN(CCCCCCCC)C(=O)[C@@H](N)C(C)O.Cl (some centres not stated) is ___
**A:** 64

**Q:** Which measured MIC value corresponds to `CCCCCCCCN(CCCCCCCC)C(=O)[C@H](N)CO.Cl` ?
**A:** 16

**Q:** State the recorded MIC for this entry: `CCCCCCCCCN(CCCCCCCCC)C(=O)[C@@H](N)CCCN=C(N)N.Cl.Cl.Cl`
**A:** 4

**Q:** Bench note: what MIC did `CCCCCCCCN(CCCCCCCC)C(=O)[C@@H](N)CCCCN.Cl.Cl` show?
**A:** 8
